This collection of values is drawn from paper PMC9050811.

Task for the reader: assign each of the following molecules its reported IC50.
# Test system: M. tuberculosis H37Ra-lux
# assay notes: microbe, parasite or virus in culture
# Format: cell-based, Mycobacterium tuberculosis
# experimental conditions: Mycobacterium tuberculosis, H37RA, 168 h, read-out: M. tuberculosis H37Ra-lux IC50

Ask: Bench note: what IC50 did `O=C(Nc1ccc(N2CCCN(C(=O)c3cnccn3)CC2)nc1)c1cccc([N+](=O)[O-])c1` show?
Result: > 64 µM

Ask: Input `Cc1ccccc1C(=O)Nc1ccc(N2CCN(C(=O)c3cnccn3)CC2)nc1`
Result: 1.82 µM

Ask: Okay, and `O=C(Nc1ccc(N2CCCN(C(=O)c3cnccn3)CC2)nc1)c1c(F)cccc1Cl` ?
Result: > 64 µM

Ask: Another molecule to check: `O=C(Nc1ccc(N2CCCN(C(=O)c3cnccn3)CC2)nc1)c1ccc(Br)cc1`
Result: 2.12 µM

Ask: Same again, this time with `O=C(Nc1ccc(N2CCCN(C(=O)c3cnccn3)CC2)nc1)c1ccc(Cl)cc1`
Result: > 64 µM

Ask: What about this molecule? `CC(C)(C)c1ccc(C(=O)Nc2ccc(N3CCN(C(=O)c4cnccn4)CC3)nc2)cc1`
Result: > 64 µM

Ask: One more molecule: NNC(=O)c1ccncc1 [Isoniazid, reference compound]
Result: 0.013 µM

Ask: Field entry: `COc1ccc(C(=O)Nc2ccc(N3CCN(C(=O)c4cnccn4)CC3)nc2)cc1`
Result: > 64 µM

Ask: Follow-up entry: `O=C(Nc1ccc(N2CCCN(C(=O)c3cnccn3)CC2)nc1)c1ccc(Br)cc1Cl`
Result: > 64 µM
